Target: PPH-5 (Caenorhabditis elegans)
Construct: made in house
Sequence (Q9NES8 whole entry): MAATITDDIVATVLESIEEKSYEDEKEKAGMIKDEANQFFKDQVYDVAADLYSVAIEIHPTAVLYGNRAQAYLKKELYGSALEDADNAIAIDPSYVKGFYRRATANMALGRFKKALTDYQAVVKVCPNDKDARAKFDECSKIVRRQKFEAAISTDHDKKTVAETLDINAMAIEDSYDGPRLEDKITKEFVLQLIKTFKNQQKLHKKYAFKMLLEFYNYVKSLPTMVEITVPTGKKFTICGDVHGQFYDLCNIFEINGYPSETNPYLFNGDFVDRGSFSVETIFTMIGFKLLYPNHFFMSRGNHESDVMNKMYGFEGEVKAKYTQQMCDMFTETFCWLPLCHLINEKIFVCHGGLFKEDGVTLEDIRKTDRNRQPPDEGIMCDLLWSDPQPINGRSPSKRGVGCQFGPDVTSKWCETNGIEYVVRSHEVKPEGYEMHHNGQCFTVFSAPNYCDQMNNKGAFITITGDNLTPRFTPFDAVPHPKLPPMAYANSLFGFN
Test: pNPP-based phosphatase assay with nematode PPH-5
Format: biochemical, C. elegans
Settings: apparent KD-value in the pNPP-based assay, 20 °C
Entries and their Kd
Just the number in µM, nothing appended.

Below, each entry is followed by its recorded Kd result.
Kd in this record for `CNC(=O)c1c(NC(=O)COCC(=O)Nc2sc3c(c2C(=O)NC)CCC3)sc2c1CCC2` : 6.4

Kd recorded for this molecule, `COc1ccc(-c2nc(Cc3ccc(Cl)cc3)no2)cc1OC` , is 7.8

According to the records, this molecule `FC(F)(F)c1c2c(nc3c(-c4ccc(Cl)cc4)cnn13)CCC2` displays Kd of 13.3

Moving on to the next molecule.
The molecule listed as `O=c1cc2nc(-c3ccc(F)cc3)nc(SCc3ccc(Br)cc3)n2[nH]1` shows Kd equal to 25.7

----------
Biological target: PP5 (Rattus norvegicus)
Construct: The full-length PP5 and its deletion variants were purified and the activity was determined
Sequence (P53042 whole entry): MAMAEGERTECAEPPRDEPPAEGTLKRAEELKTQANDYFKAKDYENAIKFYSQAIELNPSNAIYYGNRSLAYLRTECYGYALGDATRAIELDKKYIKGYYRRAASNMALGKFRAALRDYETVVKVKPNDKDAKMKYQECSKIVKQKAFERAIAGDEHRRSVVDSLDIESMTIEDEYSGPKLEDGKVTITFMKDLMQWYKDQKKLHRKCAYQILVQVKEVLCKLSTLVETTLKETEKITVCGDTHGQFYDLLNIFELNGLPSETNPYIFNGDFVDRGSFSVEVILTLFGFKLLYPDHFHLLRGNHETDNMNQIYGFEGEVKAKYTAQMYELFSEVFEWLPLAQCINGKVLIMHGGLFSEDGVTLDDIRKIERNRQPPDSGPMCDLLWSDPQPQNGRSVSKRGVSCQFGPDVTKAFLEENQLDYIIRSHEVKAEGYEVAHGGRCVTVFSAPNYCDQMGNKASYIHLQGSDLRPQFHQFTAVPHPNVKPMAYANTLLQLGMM
Experiment: pNPP-based phosphatase assay with full-length mammalian PP5
Conditions: rat PP5; read-out: binding constant (affinity towards the mammalian protein)
Protocol: Cloning and purification of PPH-5, Hsp90/DAF-21, CDC-37, YFP-Hsp90/DAF-21 were performed as described before (Gaiser et al., 2009; Gaiser et al., 2011; Gaiser et al., 2010). The purified human phosphatases PP1, PP2A and PP2B/PP3 were purified as described (Baumgrass et al., 2001; Mondragon et al., 1997; Tung et al., 1985). […] Protein purity was assessed by SDS-PAGE and the molecular mass was determined by a MALDI-TOF/TOF mass spectrometer (Bruker, Bremen, Germany). […]
Outcome measure: pKd
Please treat pKd as minus the base-10 logarithm of the molar concentration.

The recorded pKd for `CNC(=O)c1c(NC(=O)COCC(=O)Nc2sc3c(c2C(=O)NC)CCC3)sc2c1CCC2` is 5.00

----------
Molecular target: Hsp90/DAF-21 (Caenorhabditis elegans, UniProt Q18688)
Construct: made in house
Assay: coupled regenerative ATPase assay
Format: biochemical, C. elegans
Details: concentrations well above the KD; also with AHA-1; 30 °C
Outcome measure: ATPase activity of Hsp90/DAF-21

Briefly, ATPase activity of Hsp90/DAF-21 measured for O=c1cc2nc(-c3ccc(F)cc3)nc(SCc3ccc(Br)cc3)n2[nH]1 [P5SA-4] : no effect

The value of ATPase activity of Hsp90/DAF-21 measured for the molecule COc1ccc(-c2nc(Cc3ccc(Cl)cc3)no2)cc1OC [P5SA-2] turned out to be no effect

molecule CNC(=O)c1c(NC(=O)COCC(=O)Nc2sc3c(c2C(=O)NC)CCC3)sc2c1CCC2 [P5SA-5] , ATPase activity of Hsp90/DAF-21 observed: no effect

Short answer for FC(F)(F)c1c2c(nc3c(-c4ccc(Cl)cc4)cnn13)CCC2 [P5SA-1] : ATPase activity of Hsp90/DAF-21 was no effect
